target: hNPRA (Homo sapiens, UniProt P16066); assay: NPRA Functional Cell Assay (cGMP HTRF); details: Human NPRA HEK JumpIn stable cells; cGMP by HTRF after 1 hour at 37° C.; 10-point dose response
Sorting guide: entries reporting EC50 beneath 400 nM go in the true pile, the rest go in the false pile.

Quick check: does CC(C)[C@]1(F)CCc2nc3c(F)cc(C(=O)N[C@H](CCN4CCC5(CC[C@H](O)C5)CC4)c4ccc(-c5ccnnc5)nc4)cc3cc2C1 (racemic) [Example 48] have EC50 under 400 nM?
true

Quick check: does CC1([C@H]2CCc3nc4ccc(C(=O)N[C@H](CCN5CCC[C@H]5CO)c5ccc(N6CCOC6=O)cc5)cc4cc3C2)CC1 [Example 2] have EC50 under 400 nM?
false

Quick check: does CC(C)[C@]1(F)CCc2nc3c(F)cc(C(=O)N[C@H](CCN4CCC5CCCCC5C4)c4ccc(-c5ccnnc5)nc4)cc3cc2C1 (mixture of isomers) [Example 42] have EC50 under 400 nM?
true

Quick check: does C[Si](C)(C)[C@H]1CCc2nc3ccc(C(=O)N[C@H](CCN4CCC(O)CC4)c4ccc(N5CCOC5=O)cc4)cc3cc2C1 [Example 5] have EC50 under 400 nM?
false

Quick check: does COC(=O)C1CCN(CC[C@@H](NC(=O)c2cc(F)c3nc4c(cc3c2)C[C@](F)(C(C)C)CC4)c2ccc(-c3cnc(O)c(F)c3)cc2)CC1 [Example 24] have EC50 under 400 nM?
true

Quick check: does CC(C)[C@]1(F)CCc2nc3c(F)cc(C(=O)N[C@H](CCN4CC5CC(C4)C5(O)C(F)(F)F)c4ccc(-c5ccnnc5)nc4)cc3cc2C1 (stereo partly drawn) [Example 14] have EC50 under 400 nM?
false

====

Target: hNPRA (Homo sapiens, UniProt P16066)
Sequence (P16066 33-1061): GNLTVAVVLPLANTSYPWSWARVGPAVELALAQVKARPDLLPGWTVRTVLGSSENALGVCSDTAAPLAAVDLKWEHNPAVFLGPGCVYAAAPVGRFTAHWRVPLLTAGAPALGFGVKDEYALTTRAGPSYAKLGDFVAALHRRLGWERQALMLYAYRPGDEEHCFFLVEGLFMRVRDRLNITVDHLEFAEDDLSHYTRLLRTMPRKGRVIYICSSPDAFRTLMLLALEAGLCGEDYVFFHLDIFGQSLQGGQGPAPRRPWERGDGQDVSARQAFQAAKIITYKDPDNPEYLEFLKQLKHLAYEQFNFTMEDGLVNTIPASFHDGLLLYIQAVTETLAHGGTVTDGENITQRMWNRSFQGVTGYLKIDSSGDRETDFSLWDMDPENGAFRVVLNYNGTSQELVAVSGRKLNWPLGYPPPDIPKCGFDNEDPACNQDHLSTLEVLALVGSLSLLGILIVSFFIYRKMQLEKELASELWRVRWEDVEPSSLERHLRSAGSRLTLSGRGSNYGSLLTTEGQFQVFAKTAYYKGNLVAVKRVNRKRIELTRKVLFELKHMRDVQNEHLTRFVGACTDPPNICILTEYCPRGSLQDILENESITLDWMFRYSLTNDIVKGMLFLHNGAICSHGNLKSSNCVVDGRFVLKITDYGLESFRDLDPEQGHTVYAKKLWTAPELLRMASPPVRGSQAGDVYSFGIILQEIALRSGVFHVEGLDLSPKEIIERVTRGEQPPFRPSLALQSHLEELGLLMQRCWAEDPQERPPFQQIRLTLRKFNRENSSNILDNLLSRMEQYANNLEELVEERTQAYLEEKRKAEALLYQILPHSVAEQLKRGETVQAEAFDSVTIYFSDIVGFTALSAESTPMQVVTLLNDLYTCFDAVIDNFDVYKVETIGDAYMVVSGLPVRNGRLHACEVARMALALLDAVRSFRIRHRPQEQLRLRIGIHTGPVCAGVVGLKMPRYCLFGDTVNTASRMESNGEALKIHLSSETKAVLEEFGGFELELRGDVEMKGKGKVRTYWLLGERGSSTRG
Experiment: NPRA Functional Cell Assay (cGMP HTRF)
Details: Human NPRA HEK JumpIn stable cells; cGMP by HTRF after 1 hour at 37° C.; 10-point dose response
Sorting guide: entries reporting EC50 beneath 200 nM go in the label 1 pile, the rest go in the label 0 pile.

Quick check: does "CC(C)[C@]1(F)CCc2nc3c(F)cc(C(=O)N[C@H](CCN4CCC(O)CC4)c4cnc(-c5ccnnc5)c(F)c4)cc3cc2C1" have EC50 under 200 nM?
label 1

Quick check: does "CC(C)[C@]1(F)CCc2nc3c(F)cc(C(=O)N[C@H](CCN4CCC(O)CC4)c4ccc(-c5cn[nH]c5)nc4)cc3cc2C1" have EC50 under 200 nM?
label 0

Quick check: does CN1CC(NC(=O)c2cccc([C@@H](CCN3CCC(O)CC3)NC(=O)c3ccc4nc5c(cc4c3)C[C@@H](C3(C)CC3)CC5)c2)C1 (racemic) have EC50 under 200 nM?
label 0

Quick check: does "CC(C)[C@]1(F)CCc2nc3c(F)cc(C(=O)N[C@H](CCN4CCC(O)CC4)c4ccc(-c5ccnnc5)nc4)cc3cc2C1" have EC50 under 200 nM?
label 1

Quick check: does CC(C)[C@]1(F)CCc2nc3c(F)cc(C(=O)N[C@H](CCN4CCC[C@H](O)C4)c4ccc(-c5ccnnc5)nc4)cc3cc2C1 (racemic) have EC50 under 200 nM?
label 0

Quick check: does CC(C)[C@]1(F)CCc2nc3c(F)cc(C(=O)N[C@H](CCN4CCC5(CCO5)CC4)c4ccc(-c5ccnnc5)nc4)cc3cc2C1 [Example 17] have EC50 under 200 nM?
label 0

Quick check: does CC(C)[C@]1(F)CCc2nc3c(F)cc(C(=O)N[C@H](CCN4CCC(CO)CC4)c4ccc(-c5ccnnc5)nc4)cc3cc2C1 (racemic) have EC50 under 200 nM?
label 1

Quick check: does "CN1CC(NC(=O)c2cccc([C@@H](CCN3CCC[C@H]3CO)NC(=O)c3ccc4nc5c(cc4c3)C[C@@H](C3(C)CC3)CC5)c2)C1" have EC50 under 200 nM?
label 1

Quick check: does CC(C)[C@]1(F)CCc2nc3c(F)cc(C(=O)N[C@H](CCN4CCC5(O)CCCCC5C4)c4ccc(-c5ccnnc5)nc4)cc3cc2C1 (stereo partly drawn) [Example 15] have EC50 under 200 nM?
label 0

Quick check: does CC(C)[C@]1(F)CCc2nc3c(F)cc(C(=O)N[C@H](CCN4CCC5(O)CCCCC5C4)c4ccc(-c5ccnnc5)nc4)cc3cc2C1 (mixture of isomers) [Example 52] have EC50 under 200 nM?
label 0

Quick check: does CC(C)[C@]1(F)CCc2nc3c(F)cc(C(=O)N[C@H](CCN4CCC(O)CC4(C)C)c4ccc(-c5ccnnc5)nc4)cc3cc2C1 (stereo partly drawn) have EC50 under 200 nM?
label 0

Quick check: does CC(C)[C@]1(F)CCc2nc3c(F)cc(C(=O)N[C@H](CCN4[C@H](C)CCC[C@@H]4C)c4ccc(-c5ccnnc5)nc4)cc3cc2C1 (racemic) have EC50 under 200 nM?
label 1
